recorded-endpoint: melting point

Below, each entry is followed by its recorded melting point result.
| molecule | melting point |
| --- | --- |
| CCCCc1oc2ccccc2c1CCc1ccc(OS(=O)(=O)c2ccc(C(=O)O)c(OC(C)=O)c2)cc1 [Example 26] | 54 to 57 °C |
| Cc1oc(Cc2cccc(Br)c2)c(C(=O)c2cc(C(C)C)c(OS(=O)(=O)c3ccc(C(=O)O)c(O)c3)c(C(C)C)c2)c1C [Example 10] | 148 °C |
| CC(=O)Oc1cc(S(=O)(=O)Oc2ccc(C(=O)c3c(Cc4ccccc4)sc(C)c3C)cc2C2CCCC2)ccc1C(=O)O [Example 23] | 94 to 96 °C |
| CCCCc1oc2ccccc2c1C(=O)c1cc(-c2ccccc2)c(OS(=O)(=O)c2ccc(C(=O)O)c(O)c2)c(-c2ccccc2)c1 [Example 2] | 190 to 197 °C |
| CCc1oc2ccccc2c1C(=O)c1cc(Br)c(OS(=O)(=O)c2ccc(C(=O)O)c(O)c2)c(Br)c1 [Example 1] | 173 °C |
| CCCCc1oc2ccccc2c1Cc1ccc(OS(=O)(=O)c2ccc(C(=O)O)c(O)c2)cc1 [Example 28] | 135 to 138 °C |
| O=C(O)c1ccc(S(=O)(=O)Oc2ccc(CCc3c(Cc4ccccc4)sc4ccccc34)cc2)cc1O [Example 12] | 57 to 59 °C |
| Cc1sc(Cc2ccc(Br)cc2)c(C(=O)c2ccc(OS(=O)(=O)c3cnn(C)c3)c(C3CCCC3)c2)c1C [Example 27] | 55 to 60 °C |

Exam item: Which melting point is listed for Cc1oc(Cc2ccc(Br)cc2)c(C(=O)c2cc(C(C)C)c(OS(=O)(=O)c3ccc(C(=O)O)c(O)c3)c(C(C)C)c2)c1C [Example 11] ?
Marked response: 165 to 168 °C

Exam item: For the molecule shown here, CC(=O)Oc1cc(S(=O)(=O)Oc2ccc(C(=O)c3c(Cc4ccccc4)oc(C)c3C)cc2C2CCCC2)ccc1C(=O)O [Example 22] , give the reported melting point.
Marked response: 55 to 90 °C

Exam item: Data request, read-out melting point, for Cc1oc(Cc2ccccc2Br)c(C(=O)c2cc(C(C)C)c(OS(=O)(=O)c3ccc(C(=O)O)c(O)c3)c(C(C)C)c2)c1C [Example 9]
Marked response: 90 to 95 °C

Exam item: Fill in the blank: the reported melting point of Cc1sc(Cc2ccccc2)c(C(=O)c2ccc(OS(=O)(=O)c3ccc(C(=O)O)c(O)c3)c(C3CCCC3)c2)c1C [Example 18] is ____.
Marked response: 70 to 77 °C

Exam item: Sample Cc1oc(Cc2ccc(Br)cc2)c(C(=O)c2ccc(OS(=O)(=O)c3ccc(C(=O)O)c(O)c3)c(C3CCCC3)c2)c1C [Example 13] — what was its melting point?
Marked response: 188 to 192 °C

Exam item: Field request: melting point | item: CCc1cc(C(=O)c2c(Cc3ccccc3)oc(C)c2C)cc(CC)c1OS(=O)(=O)c1ccc(C(=O)O)c(O)c1 [Example 19]
Marked response: 143 to 147 °C
